# TARGET: GDP-bound KRAS wild-type protein (Homo sapiens)
# Sequence (P01116 whole entry): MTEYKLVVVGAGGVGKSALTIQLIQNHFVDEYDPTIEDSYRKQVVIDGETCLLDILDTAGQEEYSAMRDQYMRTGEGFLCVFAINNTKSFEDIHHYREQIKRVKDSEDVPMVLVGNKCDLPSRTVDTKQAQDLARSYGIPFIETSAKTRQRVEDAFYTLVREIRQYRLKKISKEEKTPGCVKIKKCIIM
# EXPERIMENTAL_DETAILS: Binding to KRAS by surface plasmon resonance (SPR), Single Cycle Kinetics
# CONDITION_LABEL: SPR, Single Cycle Kinetics, GDP-bound KRAS wild-type protein; read-out: KRAS KD
pKd: −log10 of the molar value.
Mark 0 (no) for pKd values under 10, and 1 (yes) for everything at or above.

CHEMICAL_SMILES	CATEGORY_LABEL
CCO[C@@H]1C[C@H]2C(=O)N(C)C3(CCC3)C(=O)N(C)[C@@H](C3CCCC3)C(=O)N(C)[C@H](C(=O)N(C)C)CC(=O)N(C)[C@@H](CC)C(=O)N[C@@H]([C@@H](C)CC)C(=O)N(C)CC(=O)N(C)[C@H]3C/C=C\CCN(C3=O)[C@@H](Cc3ccc(C(F)(F)F)cc3)C(=O)N(C)CC(=O)N[C@@H](CCc3cc(F)c(C(F)(F)F)c(F)c3)C(=O)N2C1	1 (yes)

Data request: Check if pKd >= 10 (inclusive). Item: CCC[C@H]1C(=O)N[C@@H]([C@@H](C)CC)C(=O)N(C)CC(=O)N(C)[C@H]2C/C=C\CCN(C2=O)[C@@H](Cc2ccc(C(F)(F)F)cc2)C(=O)N(C)CC(=O)N[C@@H](CCc2ccc(C(F)(F)F)c(OC)c2)C(=O)N2C[C@H](OCC)C[C@H]2C(=O)NC2(CC(C)(C)C2)C(=O)N(C)[C@@H](C(CC)CC)C(=O)N(C)[C@H](C(=O)N(C)C)CC(=O)N1C
Data returned: 0 (no)
